From: PubChem BioAssay AID1159580

Assay: chemical genetic growth profiling, strain panel (AID 1159580);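 further: tested at 20 µM; growth read once vehicle control cultures reached saturation at 30 °C; 1 = growth at the plate median or of vehicle wells; lower values mean less growth of the strain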
Conditions: S. cerevisiae deletion strains, growth OD, locus YJR043C, strain POL32, hits give low values
Out of some 5,500 compounds screened, about 2,000 (36%) were called active. Not shown: some 18% with an inconclusive outcome. The list shows a part of the results.
The following compounds are listed with their measured normalized growth values.

compound	result
COc1ccc(-c2cc(=O)c3c(O)cc(O)cc3o2)cc1	1.04 (inactive)
COc1cc(C)c2c(=O)c3c(O)cc(O)cc3oc2c1	0.979 (inactive)
CCCCC(=O)O[C@]1(C(=O)CO)[C@@H](C)CC2C3CCC4=CC(=O)C=C[C@]4(C)[C@@]3(F)C(O)C[C@@]21C (stereo partly drawn)	1.03 (inactive)
COc1cc(C(=O)O)cc(OC)c1OC	1.03 (inactive)

Exam item: Query normalized growth for `CCc1ccc2c(O)c3c(cc2c1C(=O)OC)C(=O)c1c(O)ccc(O)c1C3=O`
Marked response: 0.979 (inactive)

Exam item: Query normalized growth for C[C@@H](CO)NC(=O)C1C=C2c3cccc4[nH]cc(c34)C[C@H]2N(C)C1 (stereo partly drawn)
Marked response: 0.995 (inactive)

Exam item: Query normalized growth for `O=C1CC(=O)CC(c2ccc(Cl)c(Cl)c2)C1`
Marked response: 1.01 (inactive)

Exam item: Query normalized growth for `O=C1C(c2ccc(Br)cc2)=C(O)c2ccccc21`
Marked response: 0.978 (inactive)

Exam item: Query normalized growth for `COc1cc(C)c2c(=O)c3c(O)cc(OC)cc3oc2c1`
Marked response: 0.999 (inactive)

Exam item: Query normalized growth for `COc1ccc(Br)c(-c2nnc(-c3ccccc3[N+](=O)[O-])o2)c1`
Marked response: 0.955 (inactive)

Exam item: Query normalized growth for `O=[N+]([O-])c1ccc(Oc2c(Cl)cccc2Cl)c(Cl)c1Oc1c(Cl)cccc1Cl`
Marked response: 0.961 (inactive)

Exam item: Query normalized growth for `NC(N)=NC(N)=Nc1cc(Cl)cc(Cl)c1`
Marked response: 0.999 (inactive)

Exam item: Query normalized growth for Cc1c(OCC(F)(F)F)ccnc1CS(=O)c1nc2ccccc2[nH]1 (stereo not drawn)
Marked response: 0.979 (inactive)

Exam item: Query normalized growth for `CCOC(=O)/C(C#N)=C/N=C(N/N=C\c1c(Cl)cccc1Cl)SC`
Marked response: 1.04 (inactive)

Exam item: Query normalized growth for CC1(C)S[C@@H]2[C@H](NC(=O)C(C(=O)O)c3ccccc3)C(=O)N2[C@H]1C(=O)O (stereo partly drawn)
Marked response: 1.01 (inactive)

Exam item: Query normalized growth for `CCN(CCS(=O)(=O)c1ccc(C)cc1)S(=O)(=O)c1ccccc1`
Marked response: 1 (inactive)

Exam item: Query normalized growth for `COC1=CC(=O)C=C(OC)C1=O`
Marked response: 1 (inactive)

Exam item: Query normalized growth for CC1(C)C(O)CC(=O)C2(C)C1CC(O)C1(C)C2CCC2(C)C(c3ccoc3)OC(=O)C3OC321 (stereo not drawn)
Marked response: 0.987 (inactive)

Exam item: Query normalized growth for `CC(=O)O[C@@H]1c2c(ccc3ccc(=O)oc23)OC(C)(C)[C@@H]1OC(=O)CC(C)C`
Marked response: 1.03 (inactive)

Exam item: Query normalized growth for CC1CCCC(C)N1NC(=O)c1ccc(Cl)c(S(N)(=O)=O)c1 (stereo not drawn)
Marked response: 0.982 (inactive)

Exam item: Query normalized growth for `COc1cc(O)c2c(=O)cc(-c3ccc(O)cc3)oc2c1`
Marked response: 1 (inactive)

Exam item: Query normalized growth for `C[N+]1(C)C[C@H](O)[C@H](C(=O)[O-])C1`
Marked response: 0.995 (inactive)

Exam item: Query normalized growth for `COc1cc(O)c2c(=O)cc(-c3ccc(OC)c(-c4c(O)cc(O)c5c(=O)cc(-c6ccc(O)cc6)oc45)c3)oc2c1`
Marked response: 0.935 (inactive)
